test system: MDA-MB-361; assay: MDA-MB-361 proliferation; assay type: cell-based; conditions: Homo sapiens, MDA-MB-361, Table 4 (PI3K α inhibitors); MDA-MB-361; read-out: MDA-MB-361 proliferation (nM)*
reportedMetric: IC50

>>> assayresult("Nc1nc2cc(-c3ccc4ncc(N5CCNC(=O)C5)cc4n3)ccc2o1 [Compound 580]")
"< 1000 nM"

###

molecular target: PI3K γ (p110γ) (Homo sapiens, UniProt P48736); construct: purchased Upstate / Millipore Corporation; test: PI 3-Kinase (human) HTRF assay, PI3K γ; type: biochemical; conditions: read-out: PI3K γ IC50
Sequence (P48736 whole entry): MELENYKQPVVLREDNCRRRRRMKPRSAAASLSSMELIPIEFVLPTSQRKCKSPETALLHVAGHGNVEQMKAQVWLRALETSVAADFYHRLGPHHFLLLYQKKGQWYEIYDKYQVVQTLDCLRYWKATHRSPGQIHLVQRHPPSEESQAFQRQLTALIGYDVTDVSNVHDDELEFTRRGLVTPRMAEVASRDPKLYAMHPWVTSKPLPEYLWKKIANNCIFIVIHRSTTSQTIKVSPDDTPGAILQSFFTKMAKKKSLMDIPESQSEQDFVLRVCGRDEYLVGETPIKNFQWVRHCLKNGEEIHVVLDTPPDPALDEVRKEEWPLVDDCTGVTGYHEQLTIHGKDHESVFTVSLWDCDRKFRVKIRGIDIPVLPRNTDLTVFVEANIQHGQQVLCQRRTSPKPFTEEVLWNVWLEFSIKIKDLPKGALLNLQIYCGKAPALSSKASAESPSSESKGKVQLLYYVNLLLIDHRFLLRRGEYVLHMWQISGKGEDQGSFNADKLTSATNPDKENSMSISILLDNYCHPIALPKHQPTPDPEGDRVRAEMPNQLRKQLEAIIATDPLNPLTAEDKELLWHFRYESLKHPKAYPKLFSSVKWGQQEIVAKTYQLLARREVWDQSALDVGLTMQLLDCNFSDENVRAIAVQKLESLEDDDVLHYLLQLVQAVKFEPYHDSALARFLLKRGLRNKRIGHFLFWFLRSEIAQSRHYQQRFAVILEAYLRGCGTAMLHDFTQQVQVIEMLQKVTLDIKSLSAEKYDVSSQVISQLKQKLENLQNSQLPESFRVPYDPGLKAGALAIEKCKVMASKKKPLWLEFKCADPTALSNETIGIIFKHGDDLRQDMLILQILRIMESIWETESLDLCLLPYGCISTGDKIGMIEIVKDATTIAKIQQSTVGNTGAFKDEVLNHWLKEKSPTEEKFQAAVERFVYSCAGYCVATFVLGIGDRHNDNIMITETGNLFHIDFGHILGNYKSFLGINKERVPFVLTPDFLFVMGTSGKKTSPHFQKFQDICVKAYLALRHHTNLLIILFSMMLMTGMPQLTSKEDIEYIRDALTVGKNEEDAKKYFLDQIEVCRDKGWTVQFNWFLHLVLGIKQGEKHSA
pIC50: −log10 of the molar value.
As shown below, each of these compounds has a reported pIC50 value.
reportedMetric: pIC50

>>> assayresult("CS(=O)(=O)N1CCN(c2cnc3ccc(-c4ccc5oc(N)nc5c4)cc3n2)CC1")
"> 7.00"
>>> assayresult("Nc1nc2cc(-c3ccc4ncc(C(=O)N5CC(F)(F)C5)n4c3)ccc2o1")
"> 7.00"
>>> assayresult("Nc1nc2cc(-c3ccc4ncc(C(=O)N5CCOCC5)nc4c3)ccc2o1")
"< 5.00"
>>> assayresult("COc1ncc(-c2ccc3ncc(C(=O)N4CCOCC4)n3c2)cc1NS(=O)(=O)c1ccc(F)cc1F")
"> 7.00"
>>> assayresult("Nc1nc2cc(-c3ccc4ncc(N5CC(N6CCNCC6)C5)nc4c3)ccc2o1")
"> 6.00"
>>> assayresult("CC(=O)N1CCC(Nc2ncnc3ccc(-c4ccc5oc(N)nc5c4)nc23)CC1")
"> 7.00"
>>> assayresult("Nc1nc2cc(-c3ccc4ncc(N5CC(C(=O)N6CCN(C7CC7)CC6)C5)nc4c3)ccc2o1")
"> 6.00"
>>> assayresult("Cc1cc2oc(N)nc2cc1-c1ccc2ncc(N3CC(N4CCOCC4)C3)nc2c1")
"< 5.00"
>>> assayresult("Nc1nc2cc(-c3ccc4ncc(NCCN5CCOCC5)nc4c3)ccc2o1")
"> 6.00"
>>> assayresult("Nc1nc2cc(-c3ccc4ncc(N5CCC(n6cccn6)CC5)nc4c3)ccc2o1")
"> 6.00"
>>> assayresult("Nc1nc2cc(-c3ccc4ncc(N5CCS(=O)(=O)CC5)nc4c3)ccc2o1")
"> 7.00"
>>> assayresult("CN1CCN(c2cnc3ccc(-c4ccc5nc(N)sc5c4)cc3n2)CC1")
"> 5.00"
>>> assayresult("CC(C)(C)N1CCN(C(=O)c2cnc3ccc(-c4ccc5oc(N)nc5c4)cn23)CC1")
"> 5.00"
>>> assayresult("CCN1CCN(C2CN(c3cnc4ccc(-c5ccc6oc(N)nc6c5)cc4n3)C2)CC1")
"> 5.00"
>>> assayresult("Nc1noc2ccc(-c3ccc4nccc(-c5ccncc5)c4c3)cc12")
"> 5.00"
>>> assayresult("CS(=O)(=O)CCN1CCC(Nc2cnc3ccc(-c4ccc5oc(N)nc5c4)cc3n2)CC1")
"> 7.00"
>>> assayresult("CCN(CC)CCCNC(=O)c1cnc2ccc(-c3ccc4oc(N)nc4c3)cn12")
"> 5.00"
>>> assayresult("COc1ccc(-c2ccc3ncc(C(=O)N4CCOCC4)n3c2)cc1NS(C)(=O)=O")
"< 5.00"
>>> assayresult("Nc1ncc(-c2ccc3oc(N)nc3c2)cn1")
"> 5.00"
>>> assayresult("C[C@H]1CN(c2cnc3ccc(-c4cccc5c(N)noc45)cc3n2)CCN1")
"< 5.00"
>>> assayresult("Nc1nc2cc(-c3ccc4ncc(N5CCCC5)nc4c3)ccc2o1")
"> 7.00"
>>> assayresult("Nc1nc2cc(-c3ccc4ncc(N5CCN(C(=O)[C@H]6CCCN6)CC5)nc4c3)ccc2o1")
"> 7.00"
>>> assayresult("Cn1c(N2CCOCC2)nc2cc(-c3ccc4oc(N)nc4c3)ccc2c1=O")
"< 5.00"
>>> assayresult("CC(Oc1nc(-c2ccc3ncc(C(=O)N4CCOCC4)n3c2)cnc1N)C(F)(F)F (stereo not shown)")
"> 6.00"
>>> assayresult("CS(=O)(=O)CCN1CCC(NC(=O)c2cnc3ccc(-c4ccc5oc(N)nc5c4)cn23)CC1")
"> 7.00"
>>> assayresult("Nc1nc2cc(-c3ccc4ncc(C(=O)NCCO)n4c3)ccc2o1")
"> 6.00"
>>> assayresult("Nc1nc2cc(-c3ccc4ncc(N5CCN(C(=O)C6(N)CCC6)CC5)nc4c3)ccc2o1")
"> 7.00"
>>> assayresult("CN1CCN(C(=O)c2cnc3ccc(-c4ccc5oc(N)nc5c4)cn23)CC1")
"> 5.00"
>>> assayresult("Nc1nc2cc(-c3ccn4ncc(C(=O)N5CCOCC5)c4c3)ccc2o1")
"> 6.00"
>>> assayresult("O=C(c1cnc2ccc(-c3ccc4c(Nc5ccccc5)nsc4c3)cn12)N1CCOCC1")
"< 5.00"
>>> assayresult("Nc1nc2cc(-c3ccc4ncn(CCO)c(=O)c4c3)ccc2o1")
"> 6.00"
>>> assayresult("Nc1nc2cc(-c3ccc4ncc(C(=O)N5CC6(C5)OCCO6)n4c3)ccc2o1")
"> 6.00"
>>> assayresult("Cc1c(-c2ccc3oc(N)nc3c2)ccc2ncc(N3CC(N4CCOCC4)C3)nc12")
"< 5.00"
>>> assayresult("Cc1ccc(-c2cnc3ccc(-c4ccc5oc(N)nc5c4)cc3n2)cn1")
"> 7.00"
